Biological target: human STING protein (140-379), WT (Homo sapiens, UniProt Q86WV6, H232R)
Sequence (Q86WV6 140-379 H232R): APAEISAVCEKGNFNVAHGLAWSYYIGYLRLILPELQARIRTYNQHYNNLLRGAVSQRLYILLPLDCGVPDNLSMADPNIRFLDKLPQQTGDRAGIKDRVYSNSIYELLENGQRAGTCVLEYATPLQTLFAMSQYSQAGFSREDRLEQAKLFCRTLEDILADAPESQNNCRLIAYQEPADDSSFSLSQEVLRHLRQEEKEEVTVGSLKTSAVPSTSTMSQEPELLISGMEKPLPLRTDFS
Test: Radiometric filtration binding competition assay (FBA), hSTING-WT
Details: WT-hSWAT IC50 (μM), WT_FBA_HIS-SUMO-hSWAT; wild-type human STING; competition with [H3] 2′3′cGAMP
Reported metric: IC50

Look over these answered cases.
In [3]: df
Out[3]:
                      smiles_representation  reported_metric  value_measured
0  COc1c(Cl)ccc2c(=O)c3ccc(C4=CCNC4)cc3n(CC(=O)O)c12             IC50        > 300 µM
1  CCc1c(Cl)ccc2c(=O)c3ccc(C)cc3n(CC(=O)O)c12             IC50    20 to 100 µM
2  C=C(C)c1ccc2c(=O)c3ccc(Cl)c(OC)c3n(CC(=O)O)c2c1             IC50    20 to 100 µM
3  Cc1noc(C)c1-c1ccc2c(=O)c3ccc(Cl)c(N(C)C)c3n(CC(=O)O)c2c1             IC50    20 to 100 µM
4  Cc1ccc2c(=O)c3c(O)cc(Cl)c(N(C)C)c3n(CC(=O)O)c2c1             IC50    20 to 100 µM

Req: Param item = "C=C(C)c1ccc2c(=O)c3ccc(Cl)c(N(C)C)c3n(CC(=O)O)c2c1" ; retrieve measured IC50.
Resp: < 20 µM

Req: What value of measured IC50 is listed for "CN(C)c1c(Cl)ccc2c(=O)c3cc(Cl)c(Nc4ccccc4)cc3n(CC(=O)O)c12" ?
Resp: < 20 µM

Req: // IC50 lookup, key: "Cc1ccccc1-c1c(Cl)ccc2c(=O)c3ccccc3n(CC(=O)O)c12"
Resp: 20 to 100 µM

---

Quick list: IC50 per entry.
Target: human STING protein (140-379), WT (Homo sapiens, UniProt Q86WV6, H232R)
Assay: Radiometric filtration binding competition assay (FBA), hSTING-WT
Conditions: WT-hSWAT IC50 (μM), WT_FBA_HIS-SUMO-hSWAT; wild-type human STING; competition with [H3] 2′3′cGAMP

>>> print(df.to_string())
                                   molecule  reported_metric  value_measured
0  C=C(C)c1c(Cl)ccc2c(=O)c3ccc(C)cc3n(CC(=O)O)c12 [Compound 47]             IC50         < 20 µM
1  CN(C)c1c(Cl)ccc2c(=O)c3ccc(Nc4c(F)cccc4F)cc3n(CC(=O)O)c12 [Compound 92]             IC50         < 20 µM
2  Cc1ccc2c(=O)c3ccc(Cl)c(N4CCCC4)c3n(CC(=O)O)c2c1 [Compound 64]             IC50    20 to 100 µM

Then this molecule:
Req: What value of measured IC50 is listed for CCNc1ccc2c(=O)c3ccc(Cl)c(OC)c3n(CC(=O)O)c2c1 [Compound 68] ?
Resp: 20 to 100 µM

---

Molecular target: human STING protein (140-379), WT (Homo sapiens, UniProt Q86WV6, H232R)
Assay: Radiometric filtration binding competition assay (FBA), hSTING-WT
Conditions: WT-hSWAT IC50 (μM), WT_FBA_HIS-SUMO-hSWAT; wild-type human STING; competition with [H3] 2′3′cGAMP
Reported metric: IC50

>>> df
                      smiles_representation  value_measured
0  CN(C)c1c(Cl)ccc2c(=O)c3ccc(-c4ccnnc4)cc3n(CC(=O)O)c12    20 to 100 µM
1  CN(C)c1c(Cl)ccc2c(=O)c3ccc(C4=CCN(C(=O)OC(C)(C)C)CC4)cc3n(CC(=O)O)c12         < 20 µM
2  CC/C=C(\CC)c1ccc2c(=O)c3ccc(Cl)c(N(C)C)c3n(CC(=O)O)c2c1         < 20 µM
3  CN(C)c1c(Cl)ccc2c(=O)c3ccc(C(C)(C)C#N)cc3n(CC(=O)O)c12         < 20 µM

Req: For human STING protein (140-379), WT (Homo sapiens, UniProt Q86WV6, H232R), provide IC50 of "CN(C)c1c(Cl)ccc2c(=O)c3ccc(Br)cc3n(CC(=O)O)c12" please.
Resp: < 20 µM

Req: Checklist item: IC50 tested on human STING protein (140-379), WT (Homo sapiens, UniProt Q86WV6, H232R), entry "CCc1cccc2c(=O)c3ccc(C)cc3n(CC(=O)O)c12" , value?
Resp: > 300 µM

Req: Find the measured IC50: item "COc1c(Cl)ccc2c(=O)c3ccc(Br)cc3n(CC(=O)O)c12" , target or system human STING protein (140-379), WT (Homo sapiens, UniProt Q86WV6, H232R).
Resp: 100 to 300 µM

Req: Notebook entry, human STING protein (140-379), WT (Homo sapiens, UniProt Q86WV6, H232R) assay: IC50 of "CC(C)c1ccc2c(=O)c3c(O)cc(Cl)c(N(C)C)c3n(CC(=O)O)c2c1" = ?
Resp: < 20 µM

The reported numbers originate from patent US20220227761A1.
